Conditions: BMC, Brij 35 mobile phase pH 5.5, 36.5 °C, C18 column
MEASURED METRIC: Retention factors (k)

P: COc1ccc2c(c1)c(CC(=O)O)c(C)n2C(=O)c1ccc(Cl)cc1 [Indomethacin, indomethacin, reference compound]
Q: CC(C(=O)O)c1ccc(-c2ccccc2)c(F)c1 (stereo not shown) [Flurbiprofen, flurbiprofen]
Request: Compare P and Q by numeric Retention factors (k) and name the larger one. Your answer should be the label attached to the chosen record.
Response: P

###

Experiment: Solubility in water
Format: physicochemical
Conditions: distilled water, thermodynamic from solid, room temperature
MEASURED METRIC: solubility at 5 min (µg/mL)

Consider the worked cases shown below.
Request: Identify the reported solubility at 5 min for the following entry. CC(=O)N(O)C(C)c1ccc(CC(C)C)cc1 (centres unmarked)
Response: 19.4

Request: Identify the reported solubility at 5 min for the following entry. CC(NC(=O)NO)c1ccc(-c2ccccc2)c(F)c1 (centres unmarked)
Response: 14.3

Request: Identify the reported solubility at 5 min for the following entry. "O=C(NO)NCc1ccccc1Nc1c(Cl)cccc1Cl"
Response: 5.45

I: COc1ccc2cc(C(C)N(O)C(C)=O)ccc2c1 (centres unmarked)
II: COc1ccc2c(c1)c(CNC(=O)NO)c(C)n2C(=O)c1ccc(Cl)cc1
Request: Of the pair I and II , name the member with the lesser recorded solubility at 5 min. Your answer should be the label attached to the chosen record.
Response: II
